Origin of the recorded values: ChEMBL document CHEMBL5370654

# assay comment: Cmax in C57BL6 mouse at 10 mg/kg, po measured upto 24 hrs by LC-MS/MS analysis
# Assay type: ADME, organism-based
# Parameters: dose 10 mg/kg, time < 24 hrs, route po
# experimental setup: in vivo
assay readout: Cmax (ng/mL)

1. CC(CC(=O)O)c1ccc(OCc2ccc3c(-c4cc(Cl)c(O)c(Cl)c4)nn(C4CCCC4)c3c2)cc1 (racemic)
2. CC(CC(=O)O)c1ccc(OCc2ccc3c(-c4cc(Cl)c(CO)c(Cl)c4)nn(C4CCCC4)c3c2)cc1 (racemic)
# return whichever of 1 and 2 has the smaller Cmax Pick one and reply with its label.
1

###

# target entity: Chemerin-like receptor 1 (Homo sapiens, UniProt Q99788)
# Sequence (Q99788 whole entry): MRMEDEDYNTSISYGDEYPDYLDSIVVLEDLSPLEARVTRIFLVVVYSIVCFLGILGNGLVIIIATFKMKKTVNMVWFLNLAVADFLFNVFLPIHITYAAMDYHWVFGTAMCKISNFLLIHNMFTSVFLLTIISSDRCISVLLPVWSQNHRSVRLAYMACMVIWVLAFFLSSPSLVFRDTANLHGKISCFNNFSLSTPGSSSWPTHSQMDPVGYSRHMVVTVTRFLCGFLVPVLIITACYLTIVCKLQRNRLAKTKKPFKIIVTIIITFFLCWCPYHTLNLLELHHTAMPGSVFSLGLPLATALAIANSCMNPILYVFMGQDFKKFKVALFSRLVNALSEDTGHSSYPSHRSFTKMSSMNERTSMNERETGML
# assay comment: Antagonist activity at human CMKLR1
assay readout: pIC50
Keep in mind that pIC50 stands for -log10 of concentration in molar terms.

For the compound "CC(C)n1nc(-c2ccccc2)c2ccc(COc3ccc([C@@H](C)CC(=O)O)cc3)cc21" , report pIC50.
5.24
